Where do the numbers come from? From the supplement of paper PMC8612539.

Catalogue of minimum inhibitory concentration values
system: Histophilus somni; assay: minimum inhibitory concentration (MIC); conditions: isolate (source animal id): 107
observable: minimum inhibitory concentration (µg/mL)

{"molecule": "CNC(C)C1CCC(N)C(OC2C(N)CC(N)C(OC3OCC(C)(O)C(NC)C3O)C2O)O1 (stereo not given) [Gentamicin]", "cmp": "=", "val": 16}
{"molecule": "CS(=O)(=O)c1ccc([C@@H](O)[C@@H](CF)NC(=O)C(Cl)Cl)cc1 [Florfenicol]", "cmp": "=", "val": 0.5}
{"molecule": "CC[C@H]1OC(=O)C[C@@H](O)[C@H](C)[C@@H](O[C@@H]2O[C@H](C)[C@@H](O[C@H]3C[C@@](C)(O)[C@@H](O)[C@H](C)O3)[C@H](N(C)C)[C@H]2O)[C@@H](CC=O)C[C@@H](C)C(=O)/C=C/C(C)=C/[C@@H]1CO[C@@H]1O[C@H](C)[C@@H](O)[C@@H](OC)[C@H]1OC [Tylosin]", "cmp": "=", "val": 8}
{"molecule": "CCN1CCN(c2cc3c(cc2F)c(=O)c(C(=O)O)cn3C2CC2)CC1 [Enrofloxacin]", "cmp": "≤", "val": 0.12}
{"molecule": "C=C[C@]1(C)C[C@@H](OC(=O)CSCCN(CC)CC)[C@]2(C)[C@H](C)CC[C@]3(CCC(=O)[C@H]32)[C@@H](C)[C@@H]1O [Tiamulin]", "cmp": "=", "val": 2}

* * *

system: Enterococcus spp.; assay: minimum inhibitory concentration (MIC); conditions: isolate (source animal id): 228
Catalogue of minimum inhibitory concentration values

{"compound structure string": "CN1C[C@@H]2C[C@H]1CN2c1cc2c(cc1F)c(=O)c(C(=O)O)cn2C1CC1", "minimum inhibitory concentration": "0.5 µg/mL"}
{"compound structure string": "NC[C@@H]1O[C@H](O[C@H]2[C@@H](O)[C@H](O[C@@H]3[C@@H](O)[C@H](N)C[C@H](N)[C@H]3O[C@H]3O[C@H](CN)[C@@H](O)[C@H](O)[C@H]3N)O[C@@H]2CO)[C@H](N)[C@@H](O)[C@@H]1O", "minimum inhibitory concentration": "> 32 µg/mL"}
{"compound structure string": "CC[C@H]1OC(=O)C[C@@H](O)[C@H](C)[C@@H](O[C@@H]2O[C@H](C)[C@@H](O[C@H]3C[C@@](C)(O)[C@@H](O)[C@H](C)O3)[C@H](N(C)C)[C@H]2O)[C@@H](CC=O)C[C@@H](C)C(=O)/C=C/C(C)=C/[C@@H]1CO[C@@H]1O[C@H](C)[C@@H](O)[C@@H](OC)[C@H]1OC", "minimum inhibitory concentration": "> 32 µg/mL"}
{"compound structure string": "COc1cc(NS(=O)(=O)c2ccc(N)cc2)nc(OC)n1", "minimum inhibitory concentration": "> 256 µg/mL"}

* * *

system: Escherichia coli; assay: minimum inhibitory concentration (MIC); conditions: isolate (source animal id): 140
Catalogue of minimum inhibitory concentration values

{"compound": "CC[C@H]1OC(=O)C[C@@H](O)[C@H](C)[C@@H](O[C@@H]2O[C@H](C)[C@@H](O[C@H]3C[C@@](C)(O)[C@@H](O)[C@H](C)O3)[C@H](N(C)C)[C@H]2O)[C@@H](CC=O)C[C@@H](C)C(=O)/C=C/C(C)=C/[C@@H]1CO[C@@H]1O[C@H](C)[C@@H](O)[C@@H](OC)[C@H]1OC", "minimum inhibitory concentration": "> 32 µg/mL"}
{"compound": "CCC[C@@H]1C[C@@H](C(=O)N[C@@H]([C@H]2O[C@H](SC)[C@H](O)[C@@H](O)[C@H]2O)[C@H](C)Cl)N(C)C1", "minimum inhibitory concentration": "> 16 µg/mL"}
{"compound": "NC[C@@H]1O[C@H](O[C@H]2[C@@H](O)[C@H](O[C@@H]3[C@@H](O)[C@H](N)C[C@H](N)[C@H]3O[C@H]3O[C@H](CN)[C@@H](O)[C@H](O)[C@H]3N)O[C@@H]2CO)[C@H](N)[C@@H](O)[C@@H]1O", "minimum inhibitory concentration": "≤ 4 µg/mL"}
{"compound": "CC[C@H]1OC(=O)C[C@@H](O)[C@H](C)[C@@H](O[C@@H]2O[C@H](C)[C@@H](O)[C@H](N(C)C)[C@H]2O)[C@@H](CCN2CCCCC2)C[C@@H](C)C(=O)/C=C/C(C)=C/[C@@H]1CN1CCCCC1", "minimum inhibitory concentration": "4 µg/mL"}
{"compound": "COc1cc(NS(=O)(=O)c2ccc(N)cc2)nc(OC)n1", "minimum inhibitory concentration": "≤ 256 µg/mL"}
{"compound": "CNC(C)C1CCC(N)C(OC2C(N)CC(N)C(OC3OCC(C)(O)C(NC)C3O)C2O)O1 (stereo unspecified)", "minimum inhibitory concentration": "≤ 1 µg/mL"}
